B1: NCF4 (parent)
chain: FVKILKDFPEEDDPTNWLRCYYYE

variants of: B1; test: protein stability index of a GFP-peptide fusion (GPS, HEK-293T) (PSI 1-6); higher = more stable; settings: c terminus: a fixed tail appended;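 further: lentivirally expressed fusions sorted by FACS into six bins by GFP to DsRed ratio, PSI derived from sequencing read proportions per bin multiplied by bin number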
Parameter threshold = 2. Response is TRUE when protein stability index meets or exceeds it, else FALSE.

Reference set, count: 10
P14Y ... FALSE
I4F ... TRUE
K3C ... FALSE
T15L ... TRUE
F1V ... TRUE
E11M ... FALSE
P9Y ... FALSE
Y22T ... TRUE
L5W ... FALSE
V2E ... TRUE

Check the entry `D12T` : does protein stability index equal or exceed 2?
FALSE

Check the entry `Y21Q` : does protein stability index equal or exceed 2?
FALSE

Check the entry `C20P` : does protein stability index equal or exceed 2?
FALSE

Check the entry `P14G` : does protein stability index equal or exceed 2?
TRUE

Check the entry `P14E` : does protein stability index equal or exceed 2?
TRUE

Check the entry `Y21L` : does protein stability index equal or exceed 2?
TRUE

Check the entry `I4A` : does protein stability index equal or exceed 2?
FALSE

Where these numbers come from: the supplement of paper PMC10567573
